# experimental_system: human androgen receptor (Homo sapiens, UniProt P10275)
# Construct: expressed in transfected cells; host or cells: COS-7 cells (ATCC)
# Sequence (P10275 whole entry): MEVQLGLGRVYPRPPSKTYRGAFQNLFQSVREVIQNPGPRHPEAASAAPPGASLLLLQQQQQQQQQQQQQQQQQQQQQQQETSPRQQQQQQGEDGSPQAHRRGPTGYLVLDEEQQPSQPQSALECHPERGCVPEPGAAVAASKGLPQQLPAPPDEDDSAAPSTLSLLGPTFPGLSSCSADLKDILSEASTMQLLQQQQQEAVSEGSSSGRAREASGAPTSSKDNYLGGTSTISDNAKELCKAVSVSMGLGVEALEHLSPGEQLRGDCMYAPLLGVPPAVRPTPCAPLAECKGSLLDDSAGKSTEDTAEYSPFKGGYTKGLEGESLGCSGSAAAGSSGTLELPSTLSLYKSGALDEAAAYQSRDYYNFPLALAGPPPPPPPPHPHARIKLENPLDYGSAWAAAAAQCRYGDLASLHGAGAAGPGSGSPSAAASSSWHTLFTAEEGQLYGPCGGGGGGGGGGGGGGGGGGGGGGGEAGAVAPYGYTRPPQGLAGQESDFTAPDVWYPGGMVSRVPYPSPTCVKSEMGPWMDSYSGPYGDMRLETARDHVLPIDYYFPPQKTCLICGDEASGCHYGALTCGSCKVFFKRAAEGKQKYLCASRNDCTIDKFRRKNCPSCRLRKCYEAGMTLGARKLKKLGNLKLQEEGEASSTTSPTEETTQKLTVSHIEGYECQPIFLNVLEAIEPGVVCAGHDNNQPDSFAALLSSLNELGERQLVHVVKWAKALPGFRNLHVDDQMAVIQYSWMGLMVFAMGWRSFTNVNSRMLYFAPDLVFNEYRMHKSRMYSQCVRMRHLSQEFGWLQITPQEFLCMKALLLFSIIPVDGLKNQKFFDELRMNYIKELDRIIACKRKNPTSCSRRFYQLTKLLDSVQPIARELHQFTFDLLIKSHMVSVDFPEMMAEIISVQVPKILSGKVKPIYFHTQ
# measurement_description: Antagonist activity for AR: MMTV-luc reporter transcription in COS-7 cells transfected with human AR, stimulated with DHT
# Assay type: cell-based
# measurement_conditions: COS-7 cells with pMMTV-luc and pEX-hAR, 1 nmol/L DHT, 24 hours; read-out: AR antagonist IC50
pIC50: −log10 of the molar value.
Listing: pIC50 of selected molecules
reported_metric: pIC50

- molecule: "CC(C)(O)c1ccc(Nc2ncnc3c2CCN(c2ccc([N+](=O)[O-])c(Cl)c2F)C3)nc1 [Example 18]"
  reported_metric: "pIC50"
  obs_value: 6.00
- molecule: "CC(C)Oc1cc(N2CCc3c(ncnc3Nc3ccc(C(C)(C)O)cn3)C2)ccc1[N+](=O)[O-] [Example 19]"
  reported_metric: "pIC50"
  obs_value: 5.89
- molecule: "CC(C)(C)ONC(=O)c1ccc(Nc2ncnc3c2CCN(c2ccc(C#N)c(C(F)(F)F)c2)C3)nc1 [Example 7]"
  reported_metric: "pIC50"
  obs_value: 6.42
- molecule: "COc1ccc(Nc2nc(C)nc3c2CCN(c2ccc(C#N)c(C(F)(F)F)c2)C3)cc1 [Example 48]"
  reported_metric: "pIC50"
  obs_value: 6.00
- molecule: "COc1cc(N2CCc3c(ncnc3Nc3ccc(C(C)(C)O)cn3)C2)ccc1C#N [Example 23]"
  reported_metric: "pIC50"
  obs_value: 7.72
- molecule: "COc1cc(N2CCc3c(ncnc3Nc3ccc(C(C)(C)O)cn3)C2)ccc1[N+](=O)[O-] [Example 15]"
  reported_metric: "pIC50"
  obs_value: 6.59
- molecule: "CC(C)(C)OC(=O)N1CCc2ccc(Nc3ncnc4c3CCN(c3ccc(C#N)c(Cl)c3)C4)cc2C1 [Example 36]"
  reported_metric: "pIC50"
  obs_value: 6.74
- molecule: "O=C(NCC(F)(F)F)c1ccc(Nc2ncnc3c2CCN(c2ccc([N+](=O)[O-])c(C(F)(F)F)c2)C3)nn1 [Example 24]"
  reported_metric: "pIC50"
  obs_value: 6.74

// data source = patent US10370372B2
